Reference for the values: the FLAb antibody collection (doi:10.7554/elife.23156)

B1: scFv; the commonest letter at each place (parent)
chain 1: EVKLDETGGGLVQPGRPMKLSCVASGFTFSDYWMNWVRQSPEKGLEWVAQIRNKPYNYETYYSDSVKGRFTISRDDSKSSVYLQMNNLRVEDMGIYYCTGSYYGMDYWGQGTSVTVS
chain 2: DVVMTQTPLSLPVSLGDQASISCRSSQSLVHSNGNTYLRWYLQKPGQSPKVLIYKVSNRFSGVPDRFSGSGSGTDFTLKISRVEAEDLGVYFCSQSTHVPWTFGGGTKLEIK

# Variants of: B1
# test name: yeast surface expression (ratio to wild type); higher = more expressed
# particulars: format: scFv 4-4-20, heavy + light
Cut-off 0.5 on yeast surface expression, inclusive. At or above means Met; below means Not met.

Consider the worked cases shown below.
mutant label: chain 1 Y103A D106I W108P
answer label: Not met
--
mutant label: chain 1 M34L V37T
answer label: Met
--
mutant label: chain 1 Y32R N35K
answer label: Met
--
mutant label: chain 1 G104C Y107P W108I
answer label: Not met
--
mutant label: chain 1 D106C W108K
answer label: Not met
--
mutant label: chain 1 D31C W33C
answer label: Met

Asked: Reported yeast surface expression at or above 0.5? chain 1 F29Y D31P
Given back: Met

Asked: Reported yeast surface expression at or above 0.5? chain 1 S30P W33E
Given back: Met
